- System: AaegOR9 (Aedes aegypti)
- Assay info: Two-electrode voltage clamp of Xenopus oocytes expressing AaegOR9-ORco (tuning curve and concentration-response)
- Type: cell-based
- Condition parameters: AaegOR9; concentrations 100 pM to 10 μM
pEC50: −log10 of the molar value.
Readout: pEC50

Can you share its pEC50? I mean this compound: Cc1c[nH]c2ccccc12
~8.30

###

- System: AaegOR9 (Aedes aegypti, UniProt Q177X5)
- Sequence (Q178U6 whole entry): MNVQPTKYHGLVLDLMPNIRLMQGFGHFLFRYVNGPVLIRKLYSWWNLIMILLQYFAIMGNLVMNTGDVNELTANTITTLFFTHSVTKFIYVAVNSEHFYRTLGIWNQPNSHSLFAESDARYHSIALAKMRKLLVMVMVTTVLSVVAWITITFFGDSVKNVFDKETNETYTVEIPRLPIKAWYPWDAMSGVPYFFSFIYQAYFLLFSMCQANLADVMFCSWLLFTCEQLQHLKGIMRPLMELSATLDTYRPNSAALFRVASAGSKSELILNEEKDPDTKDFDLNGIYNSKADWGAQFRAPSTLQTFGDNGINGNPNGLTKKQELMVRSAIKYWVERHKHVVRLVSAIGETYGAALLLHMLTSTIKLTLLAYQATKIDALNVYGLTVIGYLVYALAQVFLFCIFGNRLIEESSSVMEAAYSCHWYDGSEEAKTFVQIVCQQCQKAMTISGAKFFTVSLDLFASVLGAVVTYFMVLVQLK
- Sequence (Q177X5 entry or part of it): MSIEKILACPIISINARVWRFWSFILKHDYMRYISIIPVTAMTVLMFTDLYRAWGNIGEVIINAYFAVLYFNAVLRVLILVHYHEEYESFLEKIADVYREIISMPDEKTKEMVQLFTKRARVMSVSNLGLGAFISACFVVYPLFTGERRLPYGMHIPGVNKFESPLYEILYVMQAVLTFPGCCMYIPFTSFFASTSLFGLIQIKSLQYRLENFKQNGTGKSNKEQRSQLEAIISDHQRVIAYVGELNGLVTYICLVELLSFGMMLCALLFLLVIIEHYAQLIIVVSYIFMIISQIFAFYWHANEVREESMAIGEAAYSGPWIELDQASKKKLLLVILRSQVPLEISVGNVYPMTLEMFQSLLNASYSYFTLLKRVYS
- Assay info: Two-electrode voltage clamp of Xenopus oocytes expressing AaegOR9-ORco (tuning curve and concentration-response)
- Type: cell-based
- Condition parameters: AaegOR9 tuning curve of Figure 1, 500 nM; 1 = most potent of 31
I'd be grateful if you could share measured Rank according to potency (No.) for these entries.
Reply briefly: the number, and no unit.

Can you share its Rank according to potency (No.)? I mean this compound: OCc1c[nH]c2ccccc12
19

Can you share its Rank according to potency (No.)? I mean this compound: N#CCc1c[nH]c2ccccc12
4

Can you share its Rank according to potency (No.)? I mean this compound: O=C(O)CCCc1c[nH]c2ccccc12
22

Can you share its Rank according to potency (No.)? I mean this compound: O=Cc1c[nH]c2ccccc12
2

Can you share its Rank according to potency (No.)? I mean this compound: O=C(O)c1c[nH]c2ccccc12
11

Can you share its Rank according to potency (No.)? I mean this compound: c1ccc2c(c1)[nH]c1cnccc12
13

Can you share its Rank according to potency (No.)? I mean this compound: COC(=O)c1c[nH]c2ccccc12 [Methyl indole-3-carboxylate]
5

Can you share its Rank according to potency (No.)? I mean this compound: Cc1nccc2c1[nH]c1ccccc12
6
